These entries and their values trace back to PubChem BioAssay AID686979.

- Assay: qHTS for Inhibitors of human tyrosyl-DNA phosphodiesterase 1 (TDP1): qHTS in cells in presence of CPT; further: nearly all actives have a fitted effect of over 55% in size
- Experimental Setup: chicken DT40 Tdp1-/-;hTDP1 cells + 20 nM CPT, ATP luminescence, 48 h; series mostly up to 46.2 µM
The campaign covered roughly 420,000 compounds. About 50,000 (12%) were called active. Another 26% or so got no clear call; they are omitted. The call rests on the fitted dose curve; in most records, active means well fitted inhibition curve with a large enough effect; inconclusive means small, poorly fitted or top-dose-only effect; inactive means flat fitted curve, though single readings scatter. The full list was thinned out, with actives kept by preference.
Possible outcomes: yes (1) (active), no (0) (inactive)

# Molecule, Assigned Category
records = [
    ("CCC(C)n1c(O)c(/C=N/Nc2nc3c(c(=O)n(C)c(=O)n3C)n2C)c(=O)[nH]c1=S (stereo not given)", "no (0)"),
    ("COc1cc(C(=O)N2Cc3ccc(Br)cc3-n3nncc3C2)cc(OC)c1OC", "no (0)"),
    ("O=C(NC(=S)N1C[C@H]2C[C@H](C1)c1cccc(=O)n1C2)c1ccc(F)cc1", "no (0)"),
    ("CCOC(=O)[C@]12Cc3cc(OC)ccc3[C@H]1N(C(C)C)C(=O)c1ccccc12", "yes (1)"),
    ("Cc1c(Oc2cc(NN3CCCCC3)c([N+](=O)[O-])cc2[N+](=O)[O-])cccc1[N+](=O)[O-]", "no (0)"),
    ("c1cncc(CNCCc2c[nH]c3ccccc23)c1", "no (0)"),
    ("CCOC(=O)[C@]12Cc3ccccc3[C@H]1N(C1CCCCC1)C(=O)c1cc(OC)ccc12", "yes (1)"),
    ("COc1ccc2[nH]cc(CCNCc3ccc(Br)cc3)c2c1", "yes (1)"),
    ("CCOc1ccc(C2SCC(=O)Nc3c2c(C)nn3C2CCOC(C)(C)C2)cc1 (stereo not given)", "no (0)"),
    ("COc1cc(C[C@H](C)N)c(OC)cc1Br", "no (0)"),
]

----------
- Assay: qHTS for Inhibitors of human tyrosyl-DNA phosphodiesterase 1 (TDP1): qHTS in cells in presence of CPT; further: nearly all actives have a fitted effect of over 55% in size
- Experimental Setup: chicken DT40 Tdp1-/-;hTDP1 cells + 20 nM CPT, ATP luminescence, 48 h; series mostly up to 46.2 µM
- Procedure: Human tyrosyl-DNA phosphodiesterase 1 (TDP1) is a novel repair gene, and we propose to use it as a new target for anticancer drug development. […] For the primary screen, Tdp1-/-;hTDP1 cells will be exposed to small molecules in the presence or absence of CPT, and their growth kinetics will be evaluated after 48 hours by measuring ATP activity. […] The hit compounds will then be evaluated in the presence or absence of CPT using Tdp1-/- cells. […]
The whole screen tested about 420,000 compounds, of which about 50,000 (12%) were called active. About 26% were inconclusive and are not listed. Calls follow the shape of the dose curve; as a rule, active = well fitted inhibition curve with a large enough effect; inconclusive = small, poorly fitted or top-dose-only effect; inactive = flat fitted curve, though single readings scatter. This is one part of a sample in which actives are shown more often than they occur.
Possible outcomes: active, inactive

# Molecule, Assigned Category
records = [
    ("CCCCOc1ccc(C(=O)N2CC(=O)Nc3ccc(Br)cc3C2c2ccc(F)cc2)cc1 (stereo not given)", "active"),
    ("COc1ccc2c(c1O)-c1cccc3c1[C@@H](C2)N(C)CC3", "inactive"),
    ("COc1ccc2cc1Oc1ccc(cc1)C[C@H]1c3cc(c(OC)cc3CCN1C)Oc1c(O)c(OC)cc3c1[C@H](C2)N(C)CC3", "active"),
    ("Cc1ccc(Cn2nnnc2CN2CCC(n3nnc4ccccc43)CC2)cc1", "inactive"),
    ("CCOP(=O)(OCC)C(NC(=O)NC)C(N)=O (stereo not given)", "inactive"),
    ("COc1c(O)ccc2c1-c1c3c(cc4c1C(C2)N(C)CC4)OCO3 (stereo not given)", "inactive"),
    ("O=c1[nH]c2ccccc2n1C1CCN(C(c2ccnc3ccccc23)c2nnnn2Cc2ccccc2)CC1 (stereo not given)", "active"),
    ("Cc1ccc(OC(=O)N(C)C[C@@H]2OCc3cnnn3CCCC(=O)N([C@H](C)CO)C[C@@H]2C)cc1", "inactive"),
    ("O=C1NC(=O)C(C/C=C/c2ccccc2)C(=O)N1", "inactive"),
    ("CC(C)c1ccc(OCC(=O)N2CCCN(C)CC2)cc1", "inactive"),
]

----------
- Assay: qHTS for Inhibitors of human tyrosyl-DNA phosphodiesterase 1 (TDP1): qHTS in cells in presence of CPT; further: nearly all actives have a fitted effect of over 55% in size
- Experimental Setup: chicken DT40 Tdp1-/-;hTDP1 cells + 20 nM CPT, ATP luminescence, 48 h; series mostly up to 46.2 µM
Out of some 420,000 compounds screened, about 50,000 (12%) were called active. Not shown: some 26% with an inconclusive outcome. Calls come from the whole dose curve; as a rule, active = well fitted inhibition curve with a large enough effect; inconclusive = small, poorly fitted or top-dose-only effect; inactive = flat fitted curve, though single readings scatter. This excerpt belongs to a sample that is enriched for actives.
Possible outcomes: 1.0 for active, 0.0 for inactive

# Molecule, Assigned Category
data = [
    ("CCN1CCN(C(=O)Cc2coc3cc(C)cc(C)c23)CC1", 0.0),
    ("COc1ccc(NC(=O)N2CCC3(CC2)OCCO3)c(OC)c1", 0.0),
    ("C[C@@H]1C[C@@H]2O[C@H]2/C=C\\C=C\\C(=O)Cc2c(Cl)c(O)cc(O)c2C(=O)O1", 1.0),
    ("CCOC(=O)CNC(=O)N1Cc2cc(N3CCCCC3)ccc2-n2nncc2C1", 0.0),
    ("CC(=O)c1c(O)n(C2CCCCCC2)c(=O)[nH]c1=O", 1.0),
    ("C[C@@H]1CC[C@@]2(OC1)O[C@H]1C[C@H]3[C@@H]4CC=C5C[C@@H](O)[C@H](O)C[C@]5(C)C4CC[C@]3(C)[C@H]1[C@@H]2C (stereo not given in full)", 1.0),
    ("O=c1[nH]c(=S)n(C2CC2)c(O)c1/C=N/N1CCOCC1", 0.0),
    ("COC(=O)C(c1ccccc1)N1CCCCCC1 (stereo not given)", 0.0),
    ("CN(C)C(=O)Oc1cc(=O)n2c3c(cccc13)CCC2", 0.0),
    ("COC(=O)C1=C(c2ccc(OCc3ccccc3)cc2)C[C@@H]2CC[C@H]1N2C(=O)NCc1cccc(F)c1", 1.0),
]

----------
- Assay: qHTS for Inhibitors of human tyrosyl-DNA phosphodiesterase 1 (TDP1): qHTS in cells in presence of CPT; further: nearly all actives have a fitted effect of over 55% in size
- Experimental Setup: chicken DT40 Tdp1-/-;hTDP1 cells + 20 nM CPT, ATP luminescence, 48 h; series mostly up to 46.2 µM
About 50,000 (12%) of roughly 420,000 compounds were called active. About 26% were inconclusive and are not listed. The call rests on the fitted dose curve; in most records, active means well fitted inhibition curve with a large enough effect; inconclusive means small, poorly fitted or top-dose-only effect; inactive means flat fitted curve, though single readings scatter. Shown is part of a subset that was picked to be rich in actives.
Possible outcomes: active, inactive

# Smiles Str, Assigned Category
records = [
    ("C#C[C@]1(OC(=O)CCCCCC)CC[C@H]2[C@@H]3CCC4=CC(=O)CC[C@@H]4[C@H]3CC[C@@]21C", "inactive"),
    ("CCCCCCN=C(CC)c1c(O)n(CCCC)c(=O)[nH]c1=O", "active"),
    ("N[C@H](C(=O)O)c1cc(=O)[nH]o1", "inactive"),
    ("O=C(O)COc1ccccc1/C=C1\\C(=O)NC(=O)N(CCC2=CCCCC2)C1=O", "inactive"),
    ("O=C1NC(=O)C(CCOc2ccccc2)(CCc2ccccc2)C(=O)N1", "inactive"),
]

----------
- Assay: qHTS for Inhibitors of human tyrosyl-DNA phosphodiesterase 1 (TDP1): qHTS in cells in presence of CPT; further: nearly all actives have a fitted effect of over 55% in size
- Experimental Setup: chicken DT40 Tdp1-/-;hTDP1 cells + 20 nM CPT, ATP luminescence, 48 h; series mostly up to 46.2 µM
The whole screen tested about 420,000 compounds, of which about 50,000 (12%) were called active. Another 26% or so got no clear call; they are omitted. Calls come from the whole dose curve; as a rule, active = well fitted inhibition curve with a large enough effect; inconclusive = small, poorly fitted or top-dose-only effect; inactive = flat fitted curve, though single readings scatter. This excerpt belongs to a sample that is enriched for actives.
Possible outcomes: active, inactive

# Compound, Assigned Category
rows = [
    ("Cn1cc(/C=C/c2nc3ccccc3c(=O)n2-c2ccccc2)c2ccccc21", "active"),
    ("C[C@]12CCC3C(CC[C@H]4[C@H](O)[C@H](O)CC[C@]34C)C1CCC2=O (stereo partly specified)", "active"),
    ("O=c1c2ccccc2nc(CBr)n1-c1ccc(Cl)cc1", "inactive"),
    ("C/C(CCc1c[nH]c2ccccc12)=N\\O", "inactive"),
    ("CC1=C2C(=O)C3C(CC=C4CC(OC5OC(O)C(O)C(O)C5CO)CCC43C)C2CCC12OC1CC(C)CNC1C2C (stereo unspecified)", "inactive"),
    ("O=c1c2ccccc2nc(/C=C/c2ccco2)n1-c1ccccc1O", "active"),
    ("O=C(OCCN1CCOCC1)C1(c2ccccc2)CCCC1", "inactive"),
    ("CSc1nc2ccc(C)cc2c(=O)n1-c1cccnc1", "inactive"),
    ("CCN(CC)CCOC(=O)c1cc2cc(COC)ccc2o1", "inactive"),
    ("O=C(COC(=O)Cc1ccccc1)Nc1ccc(F)cc1", "inactive"),
    ("C[C@]12CCC3C(CC[C@H]4C[C@@H](O)CC[C@]34C)C1C[C@@H](O)[C@H]2O (stereo partly specified)", "inactive"),
]
